Source: ChEMBL document CHEMBL5247578

Consider the following molecules; for each one, report its inhibition at 10 µM.
Test system: T47D
Experiment: Antiproliferative activity against human T47D cells assessed as cell growth inhibition at 10 uM incubated for 48 hrs by sulforhodamine B assay relative to control
Type: functional
Expressed in %, but write only the number.

Query string: Answer with inhibition at 10 µM of FC(F)(F)c1cccc(-c2cn3ccnc3c(-c3ccc4ncn(C5CCCCC5)c4c3)n2)c1 measured for T47D.
Result string: 52.1

Query string: Answer with inhibition at 10 µM of c1cn2cc(-c3ccc4ncn(C5CCCCC5)c4c3)nc(-c3ccc4ncn(C5CCCCC5)c4c3)c2n1 measured for T47D.
Result string: 54.9

Query string: Answer with inhibition at 10 µM of c1ccc(-c2cn3ccnc3c(-c3ccc4ncn(C5CCCCC5)c4c3)n2)cc1 measured for T47D.
Result string: -11.1

Query string: Answer with inhibition at 10 µM of COc1ccc(-c2cn3ccnc3c(-c3ccc4ncn(C5CCCCC5)c4c3)n2)cc1 measured for T47D.
Result string: -8.6

Query string: Answer with inhibition at 10 µM of Brc1ccc(-c2cn3ccnc3c(-c3ccc4ncn(C5CCCCC5)c4c3)n2)cc1 measured for T47D.
Result string: 55

Query string: Answer with inhibition at 10 µM of O=Cc1ccc(-c2cn3ccnc3c(-c3ccc4ncn(C5CCCCC5)c4c3)n2)cc1 measured for T47D.
Result string: 98

Query string: Answer with inhibition at 10 µM of c1cn2cc(-c3ccc4c(c3)ncn4C3CCCCC3)nc(-c3ccc4ncn(C5CCCCC5)c4c3)c2n1 measured for T47D.
Result string: 44.7

Query string: Answer with inhibition at 10 µM of CCc1ccc(-c2cn3ccnc3c(-c3ccc4ncn(Cc5ccccc5)c4c3)n2)cc1 measured for T47D.
Result string: 94.8

Query string: Answer with inhibition at 10 µM of Fc1ccccc1-c1cn2ccnc2c(-c2ccc3ncn(C4CCCCC4)c3c2)n1 measured for T47D.
Result string: 77.2

Query string: Answer with inhibition at 10 µM of Cc1cccc(-c2cn3ccnc3c(-c3ccc4ncn(Cc5ccccc5)c4c3)n2)c1 measured for T47D.
Result string: 86

Query string: Answer with inhibition at 10 µM of c1ccc2c(-c3cn4ccnc4c(-c4ccc5ncn(C6CCCCC6)c5c4)n3)cccc2c1 measured for T47D.
Result string: 41.3
